Source: patent US4335249A

# Test system: marigold (Tagetes spp.)
# ASSAY SUMMARY: Postemergence herbicidal activity, marigold
# Format: in vivo
# RUN PARAMETERS: post-emergence, 336 h, 2 lb/A
Measured pest or weed control at 2241.7 g/ha by item
Enter your answer as a number in %; do not include the unit.

{"columns": ["MOLECULE", "VALUE UNIT", "pest or weed control at 2241.7 g/ha"],
 "data": [
  ["CC(C)COC(=O)C(C)Oc1ccc(Oc2ccc(C(F)(F)F)cc2Cl)cc1 (centres unmarked)", "%", 0]
]}

The value of pest or weed control at 2241.7 g/ha measured for the molecule CCOC(=O)C(C)Oc1ccc(Oc2ccc(C(F)(F)F)cc2C#N)cc1 (centres unmarked) turned out to be 10

Measured pest or weed control at 2241.7 g/ha of CCOC(=O)C=CCOc1ccc(Oc2ccc(C(F)(F)F)cc2Cl)cc1 : 0

So, CCOC(=O)C(Oc1ccc(Oc2ccc(C(F)(F)F)cc2Cl)cc1)C(C)C (centres unmarked) ? Its pest or weed control at 2241.7 g/ha was 0

Input COCCOC(=O)C(C)Oc1ccc(Oc2ccc(C(F)(F)F)cc2Cl)cc1 (centres unmarked) . Output pest or weed control at 2241.7 g/ha: 30

Record CCOC(=O)C(C)Oc1ccc(Oc2ccc(C(F)(F)F)cc2Cl)cc1C (centres unmarked) , field pest or weed control at 2241.7 g/ha: 0

# pest or weed control at 2241.7 g/ha of CCOC(=O)C(C)Oc1ccc(Oc2ccc(C(F)(F)F)cc2Cl)cc1Cl (centres unmarked) = 20

pest or weed control at 2241.7 g/ha recorded for this molecule, CCN(CC)C(=O)C(C)Oc1ccc(Oc2ccc(C(F)(F)F)cc2Cl)cc1 (centres unmarked) , is 0

In plain terms, CCCOC(=O)C(C)Oc1ccc(Oc2ccc(C(F)(F)F)cc2Cl)cc1 (centres unmarked) has a documented pest or weed control at 2241.7 g/ha of 20

====

As shown below, each of these molecules has a reported pest or weed control at 4483.4 g/ha value.
# System: foxtail (Setaria spp.)
# ASSAY SUMMARY: Postemergence herbicidal activity, foxtail
# Type: in vivo
# RUN PARAMETERS: Setaria, post-emergence, 336 h, Post, 4 lb/A
Please state the value followed by its unit.

Examples with answers:
{"columns": ["MOLECULE", "ASSAYED TARGET", "OBSERVED VALUE"],
 "data": [
  ["CCOC(=O)C(C)Oc1ccc([S+]([O-])c2ccccc2C(F)(F)F)cc1 (stereo not shown)", "foxtail (Setaria spp.)", "20%"],
  ["CCOC(=O)C(C)Oc1ccc([S+]([O-])c2ccc(C(F)(F)F)cc2)cc1 (stereo not shown)", "foxtail (Setaria spp.)", "0%"],
  ["CCOC(=O)C(C)Oc1ccc(Sc2ccc(C(F)(F)F)cc2)cc1 (stereo not shown)", "foxtail (Setaria spp.)", "30%"]
]}

pest or weed control at 4483.4 g/ha in this record for CCOC(=O)C(C)Oc1ccc([S+]([O-])c2ccc(C(F)(F)F)cc2Cl)cc1 (stereo not shown) : 0%

Reported pest or weed control at 4483.4 g/ha of CCOC(=O)C(C)Oc1ccc([S+]([O-])c2cccc(C(F)(F)F)c2)cc1 (stereo not shown) : 0%

Reported pest or weed control at 4483.4 g/ha of CCOC(=O)C(C)Oc1ccc(Sc2ccccc2C(F)(F)F)cc1 (stereo not shown) : 20%

CCOC(=O)C(C)Oc1ccc(Sc2cccc(C(F)(F)F)c2)cc1 (stereo not shown) has a reported pest or weed control at 4483.4 g/ha of 30%
